test: Plasma protein binding in mouse at 150 to 400 mg/kg, po administered twice daily; assay type: ADME, organism-based; details: dose 150-400 mg/kg, read-out: PPB (converted)
observation type: fraction unbound
Write no unit; give the number alone.

Give recorded fraction unbound. Cc1cn(-c2cc(NC(=O)c3ccc(C)c(Nc4nccc(-c5cccnc5)n4)c3)cc(C(F)(F)F)c2)cn1 [NILOTINIB] 0.02

* * *

experiment: AUC in mouse at 400 to 600 mg/kg, po administered once daily; assay type: ADME, organism-based; set-up: route po; conditions: in vivo, dose 400-600 mg/kg
observation type: AUC (ng·h/mL)
Hi! Could you send only the number? It should be in ng·h/mL, unit omitted.

Give recorded AUC. Cc1ccc(NC(=O)c2ccc(CN3CCN(C)CC3)cc2)cc1Nc1nccc(-c2cccnc2)n1 24800
